- study target: kainate site (non-NMDA receptor)
- measurement protocol: binding affinity for the kainate site (non-NMDA receptor) (London and Coyle)
- condition label: Table 1, KA

compound	IC50 KA, µM
CCOC(=O)CN(C)Cc1c(CC)c([N+](=O)[O-])cc2[nH]c(=O)c(=O)[nH]c12 [Compound 3]	3.48
CCc1c(Br)cc2[nH]c(=O)c(=O)[nH]c2c1CN(C)CC(=O)O [Compound 2]	6.72
C=Cc1c(Br)cc2[nH]c(=O)c(=O)[nH]c2c1CN(C)CC(=O)O [Compound 1]	4.68
CCc1ccc2[nH]c(=O)c(=O)[nH]c2c1CN(C)CC(=O)O [Compound 4]	17.05

====

- study target: AMPA receptors
- measurement protocol: binding affinity for the AMPA receptors (Honore et al.)
- condition label: Table 1, AMPA
reported property: IC50 (µM)

CCc1ccc2[nH]c(=O)c(=O)[nH]c2c1CN(C)CC(=O)O 3.92
C=Cc1c(Br)cc2[nH]c(=O)c(=O)[nH]c2c1CN(C)CC(=O)O 1.76
CCOC(=O)CN(C)Cc1c(CC)c([N+](=O)[O-])cc2[nH]c(=O)c(=O)[nH]c12 0.128
CCc1c(Br)cc2[nH]c(=O)c(=O)[nH]c2c1CN(C)CC(=O)O 2.35

Origin of values: patent US5614508A
